Every entry's value here was drawn from ChEMBL document CHEMBL4312005.

Property: Activity; scope: individual molecules
targetOfAssay: Vascular endothelial growth factor receptor 1 (Homo sapiens)
assayNotes: Inhibition of recombinant human N-terminal GST-tagged FLT1 (784 to end residues) expressed in baculovirus infected Sf9 insect cells assessed as enzyme activity incubated for 15 mins by [gamma-33]ATP based scintillation counting method relative to control
Design: scale not given: the % may be the effect or the level left
The response must be a number in % with no trailing unit.

Consider the following illustrative entries.
{"molecule": "Cc1ccc(NC(=O)c2ccc(CN3CCN(C)CC3)cc2)cc1Nc1nccc(-c2cccnc2)n1", "Activity (%)": -10}
{"molecule": "CC(C)C/C=N/c1c(C#N)c2n(c1C(=O)Nc1ccc(Br)cc1)CCC2", "Activity (%)": 1}
{"molecule": "CC/C=N/c1c(C#N)c2n(c1C(=O)Nc1ccccc1)CCC2", "Activity (%)": 18}

Shift focus to the following entry.
Query string: Any idea what its Activity is? The molecule is CCC1SCC(=O)N1c1c(C#N)c2n(c1C(=O)Nc1ccccc1)CCC2 (centres undefined)
Result string: 32

----------
targetOfAssay: Aurora kinase A (Homo sapiens)
assayNotes: Inhibition of recombinant human N-terminal GST-tagged full length Aurora A expressed in baculovirus infected Sf9 insect cells assessed as enzyme activity incubated for 15 mins by [gamma-33]ATP based scintillation counting method relative to control
Design: scale not given: the % may be the effect or the level left
reportedProperty: Activity (%)
The response must be a number in % with no trailing unit.

Consider the following illustrative entries.
{"molecule": "CCC1SCC(=O)N1c1c(C#N)c2n(c1C(=O)Nc1ccccc1)CCC2 (centres undefined)", "targetOfAssay": "Aurora kinase A (Homo sapiens)", "Activity [%]": -11}
{"molecule": "Cc1ccc(NC(=O)c2ccc(CN3CCN(C)CC3)cc2)cc1Nc1nccc(-c2cccnc2)n1", "targetOfAssay": "Aurora kinase A (Homo sapiens)", "Activity [%]": -38}
{"molecule": "CC/C=N/c1c(C#N)c2n(c1C(=O)Nc1ccccc1)CCC2", "targetOfAssay": "Aurora kinase A (Homo sapiens)", "Activity [%]": -8}

Shift focus to the following entry.
Query string: Any idea what its Activity is? The molecule is `CC(C)C/C=N/c1c(C#N)c2n(c1C(=O)Nc1ccc(Br)cc1)CCC2`
Result string: 1

----------
targetOfAssay: AMP-activated protein kinase (AMPK) alpha-1/beta-1/gamma-1 (Homo sapiens) (UniProt P54619+Q9Y478+Q13131)
Sequence (P54619 whole entry): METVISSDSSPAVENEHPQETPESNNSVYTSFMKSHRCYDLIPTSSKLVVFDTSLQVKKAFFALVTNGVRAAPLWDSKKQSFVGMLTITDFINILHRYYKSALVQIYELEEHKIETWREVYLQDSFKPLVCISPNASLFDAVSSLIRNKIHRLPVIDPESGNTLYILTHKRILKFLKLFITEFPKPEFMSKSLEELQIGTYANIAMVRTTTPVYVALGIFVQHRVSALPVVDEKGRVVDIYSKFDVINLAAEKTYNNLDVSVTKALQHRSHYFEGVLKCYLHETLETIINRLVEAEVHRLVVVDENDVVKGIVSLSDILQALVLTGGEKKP
Sequence (Q13131 whole entry partner): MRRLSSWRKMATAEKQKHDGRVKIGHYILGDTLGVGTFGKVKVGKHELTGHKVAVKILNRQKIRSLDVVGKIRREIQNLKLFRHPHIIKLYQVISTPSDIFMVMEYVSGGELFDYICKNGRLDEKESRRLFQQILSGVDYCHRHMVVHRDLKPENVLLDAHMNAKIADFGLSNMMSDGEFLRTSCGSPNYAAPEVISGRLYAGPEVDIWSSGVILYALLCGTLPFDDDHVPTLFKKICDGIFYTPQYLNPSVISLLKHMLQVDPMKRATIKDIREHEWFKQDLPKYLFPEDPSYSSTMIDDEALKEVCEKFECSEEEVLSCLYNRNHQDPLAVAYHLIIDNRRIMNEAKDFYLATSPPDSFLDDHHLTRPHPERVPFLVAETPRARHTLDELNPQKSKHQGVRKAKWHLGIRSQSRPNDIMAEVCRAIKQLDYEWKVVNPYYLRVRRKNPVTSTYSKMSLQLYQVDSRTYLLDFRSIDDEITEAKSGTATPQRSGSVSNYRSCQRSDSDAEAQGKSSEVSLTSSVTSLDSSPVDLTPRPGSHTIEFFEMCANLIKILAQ
Sequence (Q9Y478 2-270 partner limits assumed): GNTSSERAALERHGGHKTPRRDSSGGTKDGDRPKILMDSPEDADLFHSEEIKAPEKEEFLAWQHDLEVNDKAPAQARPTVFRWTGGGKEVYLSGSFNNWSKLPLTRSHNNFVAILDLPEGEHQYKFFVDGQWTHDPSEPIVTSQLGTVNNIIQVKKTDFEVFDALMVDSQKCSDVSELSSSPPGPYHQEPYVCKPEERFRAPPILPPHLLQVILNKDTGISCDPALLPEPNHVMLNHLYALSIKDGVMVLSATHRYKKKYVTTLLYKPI
assayNotes: Inhibition of recombinant human C-terminal His-tagged full length AMPK alpha1/beta1/gamma1 expressed in baculovirus infected Sf9 insect cells assessed as enzyme activity incubated for 15 mins by [gamma-33]ATP based scintillation counting method relative to control
Set-up: scale not given: the % may be the effect or the level left
Property: Activity; scope: individual molecules
The response must be a number in % with no trailing unit.

Consider the following illustrative entries.
{"molecule": "CC(C)C/C=N/c1c(C#N)c2n(c1C(=O)Nc1ccc(Br)cc1)CCC2", "displayUnit": "%", "reading": 12}
{"molecule": "Cc1ccc(NC(=O)c2ccc(CN3CCN(C)CC3)cc2)cc1Nc1nccc(-c2cccnc2)n1", "displayUnit": "%", "reading": 18}
{"molecule": "CC/C=N/c1c(C#N)c2n(c1C(=O)Nc1ccccc1)CCC2", "displayUnit": "%", "reading": -4}

Shift focus to the following entry.
Query string: Any idea what its Activity is? The molecule is CCC1SCC(=O)N1c1c(C#N)c2n(c1C(=O)Nc1ccccc1)CCC2 (centres undefined)
Result string: 2

----------
targetOfAssay: Ribosomal protein S6 kinase alpha-5 (Homo sapiens) (UniProt O75582)
Sequence (O75582 whole entry, looked up): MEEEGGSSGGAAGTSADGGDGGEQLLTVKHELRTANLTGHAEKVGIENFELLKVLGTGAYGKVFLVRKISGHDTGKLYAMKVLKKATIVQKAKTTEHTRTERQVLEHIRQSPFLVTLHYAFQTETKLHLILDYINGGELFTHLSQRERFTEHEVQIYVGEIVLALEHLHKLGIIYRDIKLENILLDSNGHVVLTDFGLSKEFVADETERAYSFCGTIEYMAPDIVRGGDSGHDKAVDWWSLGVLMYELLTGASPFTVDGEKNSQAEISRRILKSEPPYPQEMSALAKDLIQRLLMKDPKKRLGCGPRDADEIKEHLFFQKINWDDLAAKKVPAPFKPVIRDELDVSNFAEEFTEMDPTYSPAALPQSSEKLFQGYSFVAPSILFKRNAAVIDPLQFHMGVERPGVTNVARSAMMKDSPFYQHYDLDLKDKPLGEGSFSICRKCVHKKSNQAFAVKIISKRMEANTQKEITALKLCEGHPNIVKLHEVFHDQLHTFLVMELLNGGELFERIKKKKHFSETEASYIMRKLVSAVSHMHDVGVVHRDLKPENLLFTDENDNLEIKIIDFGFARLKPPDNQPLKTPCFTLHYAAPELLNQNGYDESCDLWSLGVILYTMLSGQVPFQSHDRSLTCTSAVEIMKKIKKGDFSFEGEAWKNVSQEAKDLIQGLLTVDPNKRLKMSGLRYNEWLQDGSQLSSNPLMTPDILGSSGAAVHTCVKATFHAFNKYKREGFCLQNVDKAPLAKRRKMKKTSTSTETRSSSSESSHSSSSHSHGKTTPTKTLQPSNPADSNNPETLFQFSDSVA
assayNotes: Inhibition of recombinant human N-terminal GST-tagged full length MSK1 expressed in baculovirus infected Sf9 insect cells assessed as enzyme activity incubated for 15 mins by [gamma-33]ATP based scintillation counting method relative to control
Parameters: scale not given: the % may be the effect or the level left
reportedProperty: Activity (%)
The response must be a number in % with no trailing unit.

{"compound": "Cc1ccc(NC(=O)c2ccc(CN3CCN(C)CC3)cc2)cc1Nc1nccc(-c2cccnc2)n1", "displayUnit": "%", "Activity": 49}

Query string: Any idea what its Activity is? The compound is `CC/C=N/c1c(C#N)c2n(c1C(=O)Nc1ccccc1)CCC2`
Result string: -22

Query string: Any idea what its Activity is? The compound is CCC1SCC(=O)N1c1c(C#N)c2n(c1C(=O)Nc1ccccc1)CCC2 (centres undefined)
Result string: -23

Query string: Any idea what its Activity is? The compound is `CC(C)C/C=N/c1c(C#N)c2n(c1C(=O)Nc1ccc(Br)cc1)CCC2`
Result string: 29

----------
targetOfAssay: Ephrin type-A receptor 1 (Homo sapiens)
assayNotes: Inhibition of recombinant human N-terminal GST-tagged EPHA1 (569 to end residues) expressed in baculovirus infected Sf9 insect cells assessed as enzyme activity incubated for 15 mins by [gamma-33]ATP based scintillation counting method relative to control
Design: scale not given: the % may be the effect or the level left
Property: Activity; scope: individual molecules

Consider the following illustrative entries.
{"molecule": "CC(C)C/C=N/c1c(C#N)c2n(c1C(=O)Nc1ccc(Br)cc1)CCC2", "Activity": "25%"}
{"molecule": "Cc1ccc(NC(=O)c2ccc(CN3CCN(C)CC3)cc2)cc1Nc1nccc(-c2cccnc2)n1", "Activity": "22%"}
{"molecule": "CC/C=N/c1c(C#N)c2n(c1C(=O)Nc1ccccc1)CCC2", "Activity": "-5%"}

Shift focus to the following entry.
Query string: Any idea what its Activity is? The molecule is CCC1SCC(=O)N1c1c(C#N)c2n(c1C(=O)Nc1ccccc1)CCC2 (centres undefined)
Result string: 4%

----------
Property: Activity; scope: individual compounds
targetOfAssay: 3-phosphoinositide-dependent protein kinase 1 (Homo sapiens) (UniProt O15530)
Sequence (O15530 whole entry): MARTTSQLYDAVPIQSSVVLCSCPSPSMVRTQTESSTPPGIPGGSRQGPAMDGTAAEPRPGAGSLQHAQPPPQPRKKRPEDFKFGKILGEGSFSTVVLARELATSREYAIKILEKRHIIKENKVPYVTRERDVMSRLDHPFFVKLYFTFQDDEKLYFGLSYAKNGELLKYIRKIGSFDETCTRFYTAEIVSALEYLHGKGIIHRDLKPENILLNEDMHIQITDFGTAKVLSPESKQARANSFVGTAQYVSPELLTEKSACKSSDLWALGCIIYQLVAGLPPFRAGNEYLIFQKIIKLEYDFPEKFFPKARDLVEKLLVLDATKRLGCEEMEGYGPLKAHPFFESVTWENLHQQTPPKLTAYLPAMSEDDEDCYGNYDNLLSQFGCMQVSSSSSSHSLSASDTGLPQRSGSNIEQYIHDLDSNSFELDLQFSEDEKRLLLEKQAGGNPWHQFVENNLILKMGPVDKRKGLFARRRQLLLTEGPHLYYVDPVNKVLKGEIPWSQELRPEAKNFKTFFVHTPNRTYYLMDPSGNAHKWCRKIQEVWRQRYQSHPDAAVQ
assayNotes: Inhibition of recombinant human N-terminal His-tagged full length PDK1 expressed in baculovirus infected Sf9 insect cells assessed as enzyme activity incubated for 15 mins by [gamma-33]ATP based scintillation counting method relative to control
Set-up: scale not given: the % may be the effect or the level left

{"compound": "CCC1SCC(=O)N1c1c(C#N)c2n(c1C(=O)Nc1ccccc1)CCC2 (centres undefined)", "targetOfAssay": "3-phosphoinositide-dependent protein kinase 1 (Homo sapiens) (UniProt O15530)", "Activity": "-11%"}

Query string: Any idea what its Activity is? The compound is `Cc1ccc(NC(=O)c2ccc(CN3CCN(C)CC3)cc2)cc1Nc1nccc(-c2cccnc2)n1`
Result string: 34%

Query string: Any idea what its Activity is? The compound is `CC/C=N/c1c(C#N)c2n(c1C(=O)Nc1ccccc1)CCC2`
Result string: -15%

Query string: Any idea what its Activity is? The compound is `CC(C)C/C=N/c1c(C#N)c2n(c1C(=O)Nc1ccc(Br)cc1)CCC2`
Result string: 28%

----------
assayNotes: Selectivity index, ratio of IC50 for cytotoxicity against human MRC5 cells to IC50 for antiproliferative activity against human A2780 cells
testParameters: MRC5 cells versus A2780 cells
Property: selectivity ratio; scope: individual compounds

Consider the following illustrative entries.
{"compound": "CCC1SCC(=O)N1c1c(C#N)c2n(c1C(=O)Nc1ccccc1)CCC2 (stereo unspecified)", "reading": "3 to 15"}
{"compound": "N#Cc1c(/N=C/c2ccc(O)cc2)c(C(=O)Nc2ccc(Br)cc2)n2c1CCC2", "reading": "2 to 52"}
{"compound": "N#Cc1c(/N=C/c2ccco2)c(C(=O)Nc2ccc(Br)cc2)n2c1CCC2", "reading": "1 to 10"}

Query string: Any idea what its selectivity ratio is? The compound is `CC/C=N/c1c(C#N)c2n(c1C(=O)Nc1ccc(Br)cc1)CCC2`
Result string: 24 to 152

Query string: Any idea what its selectivity ratio is? The compound is CCC1SCC(=O)N1c1c(C#N)c2n(c1C(=O)Nc1ccc(C)cc1)CCC2 (stereo unspecified)
Result string: 3 to 15

Query string: Any idea what its selectivity ratio is? The compound is `N#Cc1c(/N=C/c2ccccc2)c(C(=O)Nc2ccc(Br)cc2)n2c1CCC2`
Result string: 2 to 52

Query string: Any idea what its selectivity ratio is? The compound is `N#Cc1c(/N=C/c2ccc(Cl)cc2)c(C(=O)Nc2ccc(Br)cc2)n2c1CCC2`
Result string: 2 to 52

Query string: Any idea what its selectivity ratio is? The compound is `N#Cc1c(/N=C/c2cccs2)c(C(=O)Nc2ccc(Br)cc2)n2c1CCC2`
Result string: 1 to 10

----------
Property: Activity; scope: individual molecules
targetOfAssay: Activin receptor type-1-like (Homo sapiens) (UniProt P37023)
Sequence (P37023 whole entry): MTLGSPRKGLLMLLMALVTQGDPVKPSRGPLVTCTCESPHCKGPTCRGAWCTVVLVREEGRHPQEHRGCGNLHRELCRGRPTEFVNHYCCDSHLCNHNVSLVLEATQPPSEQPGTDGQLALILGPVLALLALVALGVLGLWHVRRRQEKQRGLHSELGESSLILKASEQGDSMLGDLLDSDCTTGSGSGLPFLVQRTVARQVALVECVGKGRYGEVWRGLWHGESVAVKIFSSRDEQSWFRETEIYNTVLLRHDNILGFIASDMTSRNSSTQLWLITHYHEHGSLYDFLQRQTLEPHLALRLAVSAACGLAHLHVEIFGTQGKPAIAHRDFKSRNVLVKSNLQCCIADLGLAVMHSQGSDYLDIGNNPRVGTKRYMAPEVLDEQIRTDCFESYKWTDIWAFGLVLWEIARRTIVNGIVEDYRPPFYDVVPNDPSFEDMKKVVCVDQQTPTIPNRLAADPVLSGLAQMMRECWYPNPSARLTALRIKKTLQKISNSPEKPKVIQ
assayNotes: Inhibition of recombinant human N-terminal GST-tagged ALK1 (144 to end residues) expressed in baculovirus infected Sf9 insect cells assessed as enzyme activity incubated for 15 mins by [gamma-33]ATP based scintillation counting method relative to control
Parameters: scale not given: the % may be the effect or the level left
The response must be a number in % with no trailing unit.

Consider the following illustrative entries.
{"molecule": "CCC1SCC(=O)N1c1c(C#N)c2n(c1C(=O)Nc1ccccc1)CCC2 (centres undefined)", "reading": -11}
{"molecule": "CC(C)C/C=N/c1c(C#N)c2n(c1C(=O)Nc1ccc(Br)cc1)CCC2", "reading": -5}
{"molecule": "Cc1ccc(NC(=O)c2ccc(CN3CCN(C)CC3)cc2)cc1Nc1nccc(-c2cccnc2)n1", "reading": 14}

Shift focus to the following entry.
Query string: Any idea what its Activity is? The molecule is `CC/C=N/c1c(C#N)c2n(c1C(=O)Nc1ccccc1)CCC2`
Result string: 4
